Every entry's value here was drawn from ChEMBL document CHEMBL3407417.

Test: Oral bioavailability in Sprague-Dawley rat at 1 mg/kg
Type: ADME, organism-based
Conditions: in vivo
property name: bioavailability (%)
Quick reminder: number only, in %, skip the unit.

>>> df
                    structure_smiles_string  data_value
0  O=C(NC1CC1)c1ccc(-c2cnc3c(NCC4CCOCC4)cc(OC4CCCCC4)nn23)cc1          23
1  N#Cc1ccc(-c2cc(NCC3CCOCC3)c3ncc(-c4ccc(C(=O)NC5CC5)cc4)n3n2)c(N)c1           0

Here is another molecule to look at.
// query Dear colleague, please send me the reported bioavailability for CC(C)(C)Nc1cc(NCC2CCOCC2)c2ncc(-c3ccc(C(=O)NC4CC4)cc3)n2n1 when you can.
// result 36

* * *

Experiment: Tmax in BALB/c AJcl-nu/nu mouse at 10 mg/kg, po
Assay type: ADME, organism-based
Set-up: dose 10 mg/kg, route oral
Settings: in vivo
property name: Tmax (min)
Please state the figure in min; there is no need to write the unit.

// query Output Tmax of CC(C)(Nc1cc(NCC2CCOCC2)c2ncc(-c3ccc(C(=O)NC4CC4)cc3)n2n1)C(F)(F)F
// result 30

* * *

Assay: Cmax in BALB/c AJcl-nu/nu mouse at 100 mg/kg, po
Type: ADME, organism-based
Set-up: dose 100 mg/kg, route oral
Conditions: in vivo
property name: Cmax (ng/mL)
The reply should contain only the number, in ng/mL.

// query Recall and state the measured Cmax for CC(C)(Nc1cc(NCC2CCOCC2)c2ncc(-c3ccc(C(=O)NC4CC4)cc3)n2n1)C(F)(F)F .
// result 14000

* * *

Test: Cmax in Sprague-Dawley rat at 1 mg/kg, po
Format: ADME, organism-based
Set-up: dose 1 mg/kg, route oral
Details: in vivo
property name: Cmax (ng/mL)
Value expressed in ng/mL; do not type the unit.

Some compounds with recorded Cmax:
                    structure_smiles_string  unit_annotation  data_value
0  O=C(NC1CC1)c1ccc(-c2cnc3c(NCC4CCOCC4)cc(Oc4ccccc4F)nn23)cc1            ng/mL          16
1  O=C(NC1CC1)c1ccc(-c2cnc3c(NCC4CCOCC4)cc(OC4CCCCC4)nn23)cc1            ng/mL          33
2  CC(C)(C)Nc1cc(NCC2CCOCC2)c2ncc(-c3ccc(C(=O)NC4CC4)cc3)n2n1            ng/mL          50

# next compound below
// query Give Cmax for the following compound: CC(C)(Nc1cc(NCC2CCOCC2)c2ncc(-c3ccc(C(=O)NC4CC4)cc3)n2n1)C(F)(F)F
// result 38

* * *

Test: AUC in Sprague-Dawley rat at 1 mg/kg, po
Format: ADME, organism-based
Set-up: dose 1 mg/kg, route oral
Conditions: plasma
Listing of entries alongside the reported AUC.
Respond with the bare value in ng·h/mL.

                    structure_smiles_string  data_value
0  CC(C)(C)Nc1cc(NCC2CCOCC2)c2ncc(-c3ccc(C(=O)NC4CC4)cc3)n2n1         377
1  CC(C)(Nc1cc(NCC2CCOCC2)c2ncc(-c3ccc(C(=O)NC4CC4)cc3)n2n1)C(F)(F)F         360
2  O=C(NC1CC1)c1ccc(-c2cnc3c(NCC4CCOCC4)cc(OC4CCCCC4)nn23)cc1         439

Would you kindly look at the next entry?
// query For the compound O=C(NC1CC1)c1ccc(-c2cnc3c(NCC4CCOCC4)cc(Oc4ccccc4F)nn23)cc1 , give its measured AUC value.
// result 126
